- Measurement target: Lysosomal alpha-glucosidase (Homo sapiens) (UniProt P10253)
- Measurement description: qHTS Assay for Inhibitors and Activators of Human alpha-Glucosidase Cleavage of Glycogen; also: potency is read from the fitted curve at half-maximal effect;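 also: the screen sought inhibitors and activators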
- Cond: recombinant GAA, glycogen substrate, Amplex Red glucose oxidase fluorescence; series mostly up to 76.3 µM
The campaign covered roughly 300,000 compounds. About 1,200 (0.4%) were called active. Inconclusive results (about 3%) are left out. The sample as a whole holds a higher share of actives than the screen did.
Reported property: Potency

[
  {
    "Compound": "CC(=O)Oc1cccc(N2C(=O)CC(Nc3ccc(N4CCOCC4)cc3)C2=O)c1 (stereo unspecified)",
    "Measurement target": "Lysosomal alpha-glucosidase (Homo sapiens) (UniProt P10253)",
    "Reported property": "Potency",
    "Observed": "35.5 µM (active)"
  },
  {
    "Compound": "O=C(CCc1ccccc1)NNC(=O)c1ccc(Br)cc1",
    "Measurement target": "Lysosomal alpha-glucosidase (Homo sapiens) (UniProt P10253)",
    "Reported property": "Potency",
    "Observed": "inactive"
  },
  {
    "Compound": "O=c1c2ccccc2ncn1/N=C/c1ccccc1",
    "Measurement target": "Lysosomal alpha-glucosidase (Homo sapiens) (UniProt P10253)",
    "Reported property": "Potency",
    "Observed": "inactive"
  },
  {
    "Compound": "CCCc1nc2ccccc2c(=O)n1/N=C/c1ccc(O)c(O)c1",
    "Measurement target": "Lysosomal alpha-glucosidase (Homo sapiens) (UniProt P10253)",
    "Reported property": "Potency",
    "Observed": "11.2 µM (active)"
  },
  {
    "Compound": "O=C(CCc1ccccc1)NNc1ccc(F)cc1",
    "Measurement target": "Lysosomal alpha-glucosidase (Homo sapiens) (UniProt P10253)",
    "Reported property": "Potency",
    "Observed": "20 µM (active)"
  },
  {
    "Compound": "CC(=O)Nc1ccc(S(=O)(=O)NNC(=O)CCc2ccccc2)cc1",
    "Measurement target": "Lysosomal alpha-glucosidase (Homo sapiens) (UniProt P10253)",
    "Reported property": "Potency",
    "Observed": "inactive"
  }
]

====

- Measurement target: Lysosomal alpha-glucosidase (Homo sapiens)
- Measurement description: qHTS Assay for Inhibitors and Activators of Human alpha-Glucosidase Cleavage of Glycogen;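 also: the screen sought inhibitors and activators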
- Cond: recombinant GAA, glycogen substrate, Amplex Red glucose oxidase fluorescence; series mostly up to 76.3 µM
About 1,200 (0.4%) of roughly 300,000 compounds were called active. Not shown: some 3% with an inconclusive outcome. Calls follow the shape of the dose curve; as a rule, active = well fitted inhibition curve with a large enough effect; inconclusive = small, poorly fitted or top-dose-only effect, or another doubt; inactive = no such curve, though single readings can be large or run the other way. This is one part of a sample in which actives are shown more often than they occur.
Classes used: 1 for active, -1 for inactive

[
  {
    "Molecule": "Cn1cnc([N+](=O)[O-])c1Sc1n[nH]c(N)n1",
    "Class assignment": -1
  },
  {
    "Molecule": "Cc1c(C)c(C)c2[nH]c(=S)[nH]c2c1C",
    "Class assignment": -1
  },
  {
    "Molecule": "COc1cccc2c(N/N=C/c3ccco3)cc(C)nc12",
    "Class assignment": 1
  },
  {
    "Molecule": "COc1ccc(CNC(=O)COCc2cc(-c3cccs3)on2)cc1OC",
    "Class assignment": -1
  },
  {
    "Molecule": "CCn1c2ccccc2c2cc(NC(=O)COC(=O)c3ccccc3Br)ccc21",
    "Class assignment": -1
  },
  {
    "Molecule": "CCC(C)NC(=O)C1c2ccccc2Oc2ccccc21 (centres undefined)",
    "Class assignment": -1
  },
  {
    "Molecule": "O=C(N/N=C/c1ccc(O)c(O)c1)C1c2ccccc2Oc2ccccc21",
    "Class assignment": 1
  },
  {
    "Molecule": "Cc1cc2cc3c(N)[nH]nc3nc2cc1C",
    "Class assignment": 1
  },
  {
    "Molecule": "CCN(CC)c1ccc([N+](=O)[O-])cc1C(=O)O",
    "Class assignment": -1
  },
  {
    "Molecule": "Oc1ccc(Br)cc1/C=N/Nc1ccccn1",
    "Class assignment": -1
  },
  {
    "Molecule": "CCn1c2ccccc2c2cc(NC(=O)CNC)ccc21",
    "Class assignment": -1
  },
  {
    "Molecule": "CCn1c2ccccc2c2cc(NC(=S)N3CCOCC3)ccc21",
    "Class assignment": 1
  },
  {
    "Molecule": "COc1cc(OC)nc(NC(=O)CCl)n1",
    "Class assignment": -1
  },
  {
    "Molecule": "COc1ccc(N2CCN(c3ccc([N+](=O)[O-])cc3Cl)CC2)cc1",
    "Class assignment": -1
  },
  {
    "Molecule": "Oc1ccc(/C=N/Nc2ccc(C(F)(F)F)cn2)cc1O",
    "Class assignment": 1
  },
  {
    "Molecule": "O=C(CCl)NNc1cccc(Cl)n1",
    "Class assignment": 1
  },
  {
    "Molecule": "O=[N+]([O-])c1ccc(N2CCN(c3ccc(O)cc3)CC2)c(Cl)c1",
    "Class assignment": 1
  },
  {
    "Molecule": "CCCOc1cccc(C(=O)Nc2cccc(NC(=O)c3ccc(C(C)(C)C)cc3)c2)c1",
    "Class assignment": -1
  },
  {
    "Molecule": "CC(NC(=O)CCc1cn(Cc2ccccc2Cl)c2ccccc12)c1ccccc1 (centres undefined)",
    "Class assignment": -1
  },
  {
    "Molecule": "COc1ccc(CNC(=O)c2cc3c(-c4ccccc4F)nn(C)c3s2)c(OC)c1",
    "Class assignment": -1
  },
  {
    "Molecule": "COC(=O)c1cccc(Cn2nnc3sc4c(c3c2=O)CCC(C(C)(C)C)C4)c1 (centres undefined)",
    "Class assignment": -1
  },
  {
    "Molecule": "OCCN(Cc1ccccc1)Cc1ccc(Cl)cc1",
    "Class assignment": -1
  },
  {
    "Molecule": "CCOc1ccc(N(CC)S(=O)(=O)N2CCCC(C(=O)NCc3ccc(Cl)cc3)C2)cc1 (centres undefined)",
    "Class assignment": -1
  },
  {
    "Molecule": "Cc1cccc2nc(-c3ccc(Cl)s3)c(Nc3ccc4c(c3)OCCO4)n12",
    "Class assignment": 1
  }
]

====

- Measurement target: Lysosomal alpha-glucosidase (Homo sapiens) (UniProt P10253)
- Measurement description: qHTS Assay for Inhibitors and Activators of Human alpha-Glucosidase Cleavage of Glycogen; also: potency is read from the fitted curve at half-maximal effect;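 also: the screen sought inhibitors and activators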
- Cond: recombinant GAA, glycogen substrate, Amplex Red glucose oxidase fluorescence; series mostly up to 76.3 µM
Out of some 300,000 compounds screened, about 1,200 (0.4%) were called active. Inconclusive results (about 3%) are left out. The entries come from a sample that favours actives as a whole.
Reported property: Potency

[
  {
    "Structure smiles": "COc1ccc(OC)c(Nc2nc(-c3ccc(O)c(O)c3)cs2)c1",
    "Observed": "28.2 µM (active)"
  },
  {
    "Structure smiles": "CCOc1ccc(-n2c(O)c(/C=N/Nc3nnc(C)c(=O)[nH]3)c3ccccc3c2=O)cc1",
    "Observed": "39.8 µM (active)"
  },
  {
    "Structure smiles": "CCOc1ccc(-n2c(O)c(/C=N/c3ccnn3Cc3ccncc3)c3ccccc3c2=O)cc1",
    "Observed": "inactive"
  },
  {
    "Structure smiles": "CCOC(=O)c1c(/N=C/c2cc(C)ccc2O)sc2c1CCC2",
    "Observed": "10 µM (active)"
  },
  {
    "Structure smiles": "Cc1nc2nc(NCc3cccc(Br)c3)[nH]n2c(=O)c1Cc1ccccc1",
    "Observed": "inactive"
  },
  {
    "Structure smiles": "CCOc1ccc(-n2c(O)c(/C=N/Nc3nc(C)cc(C)n3)c3ccccc3c2=O)cc1",
    "Observed": "inactive"
  },
  {
    "Structure smiles": "Cc1cccc(OCCSc2nc3ccccc3n2CC(=O)N2CCCCC2)c1C",
    "Observed": "inactive"
  },
  {
    "Structure smiles": "CCOC(=O)c1c(C)oc2ccc(N(C(=O)c3ccncc3)S(=O)(=O)c3ccc(CC)cc3)cc12",
    "Observed": "inactive"
  },
  {
    "Structure smiles": "COc1ccccc1CNC(=O)CCn1c(=O)c2ccccc2n(CC(=O)Nc2cccc(Cl)c2)c1=O",
    "Observed": "inactive"
  },
  {
    "Structure smiles": "COc1ccc(-c2csc(Nc3ccc(O)cc3)n2)cc1",
    "Observed": "11.2 µM (active)"
  }
]

====

- Measurement target: Lysosomal alpha-glucosidase (Homo sapiens) (UniProt P10253)
- Measurement description: qHTS Assay for Inhibitors and Activators of Human alpha-Glucosidase Cleavage of Glycogen;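 also: the screen sought inhibitors and activators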
- Cond: recombinant GAA, glycogen substrate, Amplex Red glucose oxidase fluorescence; series mostly up to 76.3 µM
- Description: NIH Chemical Genomics Center [NCGC] NIH Molecular Libraries Probe Production Centers Network [MLPCN] […] NCGC Assay Protocol Summary: This is an enzyme assay using glycogen from bovine liver (Sigma catalog #: G0885) as the substrate and recombinant human alpha-glucosidase as the enzyme preparation. Upon hydrolysis of the substrate, the glucose product can be detected using the Amplex Red Glucose Oxidase Assay Kit (Invitrogen catalog #: A22189). […]
Out of some 300,000 compounds screened, about 1,200 (0.4%) were called active. Not shown: some 3% with an inconclusive outcome. Calls come from the whole dose curve; as a rule, active = well fitted inhibition curve with a large enough effect; inconclusive = small, poorly fitted or top-dose-only effect, or another doubt; inactive = no such curve, though single readings can be large or run the other way. For the sample, actives were picked, then their nearest neighbours and some compounds at random.
Classes used: active, inactive

[
  {
    "Structure smiles": "COC(=O)c1cc2occc2n1Cc1nc(-c2ccc(C)cc2)oc1C",
    "Class assignment": "inactive"
  },
  {
    "Structure smiles": "Cc1ccc(C(=O)NNC(=O)c2cccs2)cc1",
    "Class assignment": "inactive"
  },
  {
    "Structure smiles": "COc1ccc(NC(=O)c2sc(N)nc2-c2ccccc2)cc1",
    "Class assignment": "inactive"
  },
  {
    "Structure smiles": "Cn1c(=O)n(C)c2cc(CNc3ccc(N4CCOCC4)c(C(=O)O)c3)ccc21",
    "Class assignment": "active"
  },
  {
    "Structure smiles": "Nc1ccc(-c2sc(N)nc2-c2ccccc2)cc1",
    "Class assignment": "active"
  },
  {
    "Structure smiles": "COC(=O)c1cc(NC(=O)c2ccco2)ccc1N1CCOCC1",
    "Class assignment": "inactive"
  }
]
